- Experiment Description: self-splicing fitness, log relative to wild type (ln ratio); higher = more splicing; Tetrahymena group I intron in knt gene, E. coli kanamycin selection, DiMSum; sequences stand for … in CUCUCU…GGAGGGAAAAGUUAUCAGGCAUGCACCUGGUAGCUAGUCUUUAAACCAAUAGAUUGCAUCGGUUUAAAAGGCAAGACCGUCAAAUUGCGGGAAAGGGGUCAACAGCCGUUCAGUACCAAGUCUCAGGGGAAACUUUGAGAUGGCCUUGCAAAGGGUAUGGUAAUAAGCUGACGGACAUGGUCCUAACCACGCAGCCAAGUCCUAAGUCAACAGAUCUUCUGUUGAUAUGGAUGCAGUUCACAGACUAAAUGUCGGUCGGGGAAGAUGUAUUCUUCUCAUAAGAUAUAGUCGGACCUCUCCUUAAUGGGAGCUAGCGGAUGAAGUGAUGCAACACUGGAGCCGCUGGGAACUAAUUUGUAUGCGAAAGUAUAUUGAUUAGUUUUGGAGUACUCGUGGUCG;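 also: selection with 25 µg/mL kanamycin versus none on LB agar overnight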
- Experimental Conditions: 37 °C
Measure Name: self-splicing fitness (ln)

>>> observed_value("UCUUAGCAAUAUUACGAAAG")
-1.12
>>> observed_value("CACUAGCAAUAUUACGAGCG")
0.257
>>> observed_value("CUGGAGCAAUAUUACGGAGC")
-2.38
>>> observed_value("AAAGAGCAAUAUUACGGUAG")
-2.11
>>> observed_value("UGCGAGCAAUAUUACGCUCA")
0.239
>>> observed_value("CGAAAGCAAUAUUACGGCAG")
0.194
>>> observed_value("UACAAGCAAUAUUACGUUCU")
-0.681
>>> observed_value("AACAAGCAAUAUUACGUGAC")
-2.34
>>> observed_value("AACGAGCAAUAUUACGUCCU")
-0.143
>>> observed_value("CCGAAGCAAUAUUACGACUA")
-2.65
>>> observed_value("UUUUAGCAAUAUUACGCGUU")
-2.61
>>> observed_value("CCUCAGCAAUAUUACGAUAA")
-3.35
>>> observed_value("ACGCAGCAAUAUUACGGUAC")
-2.48
>>> observed_value("UUGGAGCAAUAUUACGAAUU")
-0.925
>>> observed_value("GGGGAGCAAUAUUACGGACG")
-1.21
>>> observed_value("CCCAAGCAAUAUUACGCGAG")
-2.58
>>> observed_value("GUCAAGCAAUAUUACGCAUG")
-2.33
>>> observed_value("AGCUAGCAAUAUUACGCUCG")
-1.53
>>> observed_value("UACUAGCAAUAUUACGUCGU")
-1.96
>>> observed_value("AGUUAGCAAUAUUACGGUUC")
-2.11
>>> observed_value("AAUAAGCAAUAUUACGCAGA")
-2.38
>>> observed_value("CGCUAGCAAUAUUACGUCUU")
-0.855
>>> observed_value("UUUUAGCAAUAUUACGGGAG")
-1.79
>>> observed_value("GCAAAGCAAUAUUACGUCCA")
-0.284
>>> observed_value("AGGGAGCAAUAUUACGCGCU")
-0.719
>>> observed_value("AUAUAGCAAUAUUACGGCGU")
-0.16
>>> observed_value("AUUGAGCAAUAUUACGUGUA")
-2.69
>>> observed_value("AUGAAGCAAUAUUACGGAUA")
-0.113
>>> observed_value("ACGAAGCAAUAUUACGCAUU")
-1.95
>>> observed_value("AGCCAGCAAUAUUACGACUC")
-2.49
>>> observed_value("CCGAAGCAAUAUUACGGCCG")
-0.442
>>> observed_value("GGAAAGCAAUAUUACGUUUG")
-1.79
>>> observed_value("GCGAAGCAAUAUUACGAAUC")
-1.11
>>> observed_value("CAUUAGCAAUAUUACGCUCA")
-0.215
>>> observed_value("GCUAAGCAAUAUUACGGACU")
-0.74
>>> observed_value("GAAUAGCAAUAUUACGAAAU")
-1.6
>>> observed_value("UCGAAGCAAUAUUACGGUCU")
-0.844
>>> observed_value("CUGGAGCAAUAUUACGAAUG")
0.0741
>>> observed_value("CCCAAGCAAUAUUACGCGUC")
-2.6
>>> observed_value("CGAAAGCAAUAUUACGUAUA")
-2.99
>>> observed_value("UCCAAGCAAUAUUACGAAUG")
-2.95
>>> observed_value("CACGAGCAAUAUUACGCCGU")
-2.26
>>> observed_value("CCGCAGCAAUAUUACGGAGC")
-2.48
>>> observed_value("CCGCAGCAAUAUUACGCACU")
-2.51
>>> observed_value("CCCGAGCAAUAUUACGUAUU")
-3.48
>>> observed_value("GUUGAGCAAUAUUACGAAAU")
-0.897
>>> observed_value("AUCGAGCAAUAUUACGGAUG")
0.184
>>> observed_value("UCGUAGCAAUAUUACGCUUG")
-0.409
>>> observed_value("UUGUAGCAAUAUUACGCGAG")
-0.735
>>> observed_value("CUAGAGCAAUAUUACGCUUG")
-1.83
>>> observed_value("CACCAGCAAUAUUACGAUUG")
-0.088
>>> observed_value("CGAGAGCAAUAUUACGGCCG")
-1.02
>>> observed_value("AACCAGCAAUAUUACGUCCG")
-0.0163
>>> observed_value("ACGUAGCAAUAUUACGCAAA")
-2.42
>>> observed_value("AAAGAGCAAUAUUACGUAGA")
-1.7
>>> observed_value("GUAAAGCAAUAUUACGAUAG")
-0.747
>>> observed_value("UUCGAGCAAUAUUACGAAAC")
-1.41
>>> observed_value("AAAUAGCAAUAUUACGGUGG")
-2.68
>>> observed_value("CUAGAGCAAUAUUACGUACC")
-3.09
>>> observed_value("CUUGAGCAAUAUUACGGCAU")
-1.93
